Where do the numbers come from? From paper PMC11546786.

assay.text: Reversed-phase HPLC retention time as measure of peptide hydrophobicity
Format: physicochemical
conditions: retention time by reverse-phase HPLC, reflects hydrophobicity difference between analogues
Ends that are not written are not given here.
readout.label: Rt (min)
State the answer as a number, implicitly in min.

LKRVWKRVKKLLKRYWRQLKKPVR-NH2 [SAAP-5]	10.681

Query block: Using the record for LKRKWKRVFKLLKRYWRQLKKPVR-NH2 [SAAP-2] , report its Rt.
Result block: 12.532

Query block: Given the substance LKRVWKRVFKKLKRYWRQLKKPVR-NH2 [SAAP-6] , what is its reported Rt?
Result block: 9.213

----------
assay.text: CD spectra, secondary structure by BeStSel
Type: physicochemical
conditions: 30 μM SDS as printed, 100 μM peptide, 25 °C
Ends that are not written are not given here.
readout.label: α-Helix (%)
Please respond with the number in % and leave the unit unwritten.

LKRVWKRVFKLLKRYWRQLKKPKR-NH2 [SAAP-13]	98.8
LKRVWKRVFKLLKRKWRQLKKPVR-NH2 [SAAP-8]	100
LKRVWKRVFKLLKRYWRQLKKKVR-NH2 [SAAP-12]	100

Query block: Report α-Helix for KKRVWKRVFKLLKRYWRQLKKPVR-NH2 [SAAP-1] please.
Result block: 93.5

Query block: Name the recorded α-Helix for LKRVWKRVFKLLKRYWRQLKKPVR-NH2 [SAAP-148] .
Result block: 93.5
